- applied-conditions: in isopropanol, 303.15 K
endpoint: solubility (mole fraction)
Output spec: single numeric token, no unit.

IN: May I ask what solubility (mole fraction) has been recorded for NC(=O)N1c2ccccc2CC(=O)c2ccccc21 ?
OUT: 0.000299

====

- applied-conditions: in THF, 303.15 K
endpoint: solubility (mole fraction)
# print the numeric value only

IN: Return reported solubility (mole fraction); argument: NC(=O)N1c2ccccc2CC(=O)c2ccccc21
OUT: 0.00266

====

- applied-conditions: in acetonitrile, 288.15 K
endpoint: solubility (mole fraction)
Note: the reply should be a number with no unit written.

IN: I have this compound here, NC(=O)N1c2ccccc2CC(=O)c2ccccc21 , and I need its recorded solubility (mole fraction).
OUT: 0.000641

From: BigSolDB 2.1
